Where do these numbers come from? They come from patent US20040024231A1.

Examples of compounds with documented RBA follow.
Molecular target: androgen receptors (Homo sapiens)
Assay: receptor binding affinities to the androgen receptors (RBA)
Conditions: receptor binding affinity to the androgen receptors; R 1881 (Methyltrienolone) = 100
Form entry: value (%) — number only.

Which measured RBA belongs to CC12CCC3C4CCC(=O)C(O)=C4CCC3C1CCC2(O)C(F)(F)F (stereo not drawn) , tested on androgen receptors (Homo sapiens)?
15

Which measured RBA belongs to CC1CC2=CC(=O)CCC2C2CCC3(C)C(CCC3(O)C(F)(F)C(F)(F)F)C12 (stereo not drawn) , tested on androgen receptors (Homo sapiens)?
34

Which measured RBA belongs to CC12CCC(=O)C=C1CCC1C2C(O)CC2(C)C1CCC2(O)C(F)(F)F (stereo not drawn) , tested on androgen receptors (Homo sapiens)?
8.6

Which measured RBA belongs to C[C@]12CCC(=O)C=C1CC[C@@H]1[C@@H]2CC[C@@]2(C)[C@H]1CC[C@@]2(O)C(F)(F)F , tested on androgen receptors (Homo sapiens)?
9.4

Which measured RBA belongs to C[C@]1(O)CC[C@H]2[C@@H]3CCC4=CC(=O)CCC4=C3C=C[C@@]21C [R 1881 (Methyltrienolone), Methyltrienolone, reference compound] , tested on androgen receptors (Homo sapiens)?
100

Which measured RBA belongs to CC12CCC3C4CCC(=O)C=C4CCC3C1CCC2(O)C(F)(F)C(F)(F)F (stereo not drawn) , tested on androgen receptors (Homo sapiens)?
21

Which measured RBA belongs to CC12CCC3C4CCC(=O)C(O)=C4CCC3C1CCC2(O)C(F)(F)C(F)(F)F (stereo not drawn) , tested on androgen receptors (Homo sapiens)?
20

Which measured RBA belongs to CC1CC2=CC(=O)CCC2(C)C2CCC3(C)C(CCC3(O)C(F)(F)F)C12 (stereo not drawn) , tested on androgen receptors (Homo sapiens)?
30

Which measured RBA belongs to CC12CCC3C4CCC(=O)C(Cl)=C4CCC3C1CCC2(O)C(F)(F)C(F)(F)F (stereo not drawn) , tested on androgen receptors (Homo sapiens)?
27

---

Biological target: androgen receptors (Homo sapiens, UniProt P10275)
Sequence (P10275 1-920): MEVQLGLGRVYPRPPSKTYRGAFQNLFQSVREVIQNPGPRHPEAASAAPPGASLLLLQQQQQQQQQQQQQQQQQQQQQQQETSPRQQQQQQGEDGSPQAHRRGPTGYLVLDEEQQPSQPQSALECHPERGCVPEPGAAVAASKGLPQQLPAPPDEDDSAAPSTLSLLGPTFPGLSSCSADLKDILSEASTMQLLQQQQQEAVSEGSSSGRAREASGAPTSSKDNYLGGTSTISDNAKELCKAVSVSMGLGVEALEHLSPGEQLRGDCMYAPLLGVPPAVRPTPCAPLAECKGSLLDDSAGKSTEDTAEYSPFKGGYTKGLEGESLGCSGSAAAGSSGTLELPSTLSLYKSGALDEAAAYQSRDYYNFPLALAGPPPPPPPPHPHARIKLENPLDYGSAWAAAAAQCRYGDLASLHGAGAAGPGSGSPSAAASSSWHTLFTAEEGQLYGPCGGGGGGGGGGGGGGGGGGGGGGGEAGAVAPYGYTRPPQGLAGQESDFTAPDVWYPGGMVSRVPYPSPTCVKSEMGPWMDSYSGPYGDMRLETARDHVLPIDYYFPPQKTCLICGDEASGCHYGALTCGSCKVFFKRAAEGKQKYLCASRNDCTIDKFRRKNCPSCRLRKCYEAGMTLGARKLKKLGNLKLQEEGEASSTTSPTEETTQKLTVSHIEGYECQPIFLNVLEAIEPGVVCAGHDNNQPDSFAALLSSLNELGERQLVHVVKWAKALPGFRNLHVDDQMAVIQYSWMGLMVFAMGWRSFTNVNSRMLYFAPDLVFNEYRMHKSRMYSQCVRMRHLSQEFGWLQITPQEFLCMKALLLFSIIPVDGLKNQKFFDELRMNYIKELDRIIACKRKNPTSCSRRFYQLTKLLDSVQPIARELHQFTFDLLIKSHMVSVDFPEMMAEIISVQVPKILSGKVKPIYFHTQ
Test: receptor binding affinities to the androgen receptors (RBA)
Conditions: receptor binding affinity to the androgen receptors; R 1881 (Methyltrienolone) = 100
quantity: RBA

Some solved entries appear below for comparison.
INSERT INTO assay_data (compound, target_desc, recorded_measurement) VALUES
  ('CC12CCC(=O)C(Cl)=C1CCC1C2CCC2(C)C1CCC2(O)C(F)(F)F (stereo not drawn)', 'androgen receptors (Homo sapiens, UniProt P10275)', '20%'),
  ('CC1CC2=CC(=O)CCC2C2CCC3(C)C(CCC3(O)C(F)(F)F)C12 (stereo not drawn)', 'androgen receptors (Homo sapiens, UniProt P10275)', '40%');

RBA lookup needed for CC12CCC3C4CCC(=O)C(Cl)=C4CCC3C1CCC2(O)C(F)(F)F (stereo not drawn) , thanks.
41%
